// provenance: PubChem BioAssay AID2060613

# Tested on: 233499-124-R-J3-PDC complex spheroid viability;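 note: spheroids exposed to the drug combinations for seven days; percent viability relative to DMSO vehicle control wells taken as 100%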
# assay: Anticancer human tumor 233499-124-R-J3-PDC patient-derived colon adenocarcinoma cell line growth inhibition [CLK]
# conditions: second compound 0.0316 µM; first compound 1 µM; hits give low values
Can you tell me viability, T/C for the items I'm about to list?
Report as a plain number; the unit % is understood.

Exercise: Quick one: viability, T/C for O=c1[nH]cc(F)c(=O)[nH]1 + CN1CCN(c2cc(C(=O)Nc3cc4cc(-c5cnn(C)c5)ccc4cn3)ccn2)CC1 ?
Solution: 43.5

Exercise: Likewise for CCc1c2c(nc3ccc(O)cc13)-c1cc3c(c(=O)n1C2)COC(=O)[C@]3(O)CC + CNC(=O)c1ccc(Nc2nc(OC3CCCC3)c3c(-c4ccc5nc(C)oc5c4)c[nH]c3n2)c(OC)c1 ?
Solution: 18.3

Exercise: // query: Nc1ccn(C2OC(CO)C(O)C2(F)F)c(=O)n1 (centres undefined) + CNC(=O)c1ccc(Nc2nc(OC3CCCC3)c3c(-c4ccc5nc(C)oc5c4)c[nH]c3n2)c(OC)c1
Solution: 13.9

Exercise: Would you mind doing COc1cccc2c1C(=O)c1c(O)c3c(c(O)c1C2=O)CC(O)(C(=O)CO)CC3OC1CC(N)C(O)C(C)O1 (centres undefined) + CN1CCN(c2cc(C(=O)Nc3cc4cc(-c5cnn(C)c5)ccc4cn3)ccn2)CC1 as well?
Solution: 80.9

Exercise: What do you get for CC(=O)O[C@H]1C(=O)[C@@]2(C)[C@H]([C@H](OC(=O)c3ccccc3)[C@]3(O)C[C@H](OC(=O)[C@H](O)[C@@H](NC(=O)c4ccccc4)c4ccccc4)C(C)=C1C3(C)C)[C@]1(OC(C)=O)CO[C@@H]1C[C@@H]2O + CNC(=O)c1ccc(Nc2nc(OC3CCCC3)c3c(-c4ccc5nc(C)oc5c4)c[nH]c3n2)c(OC)c1 ?
Solution: 21.5

Exercise: Record: CCCS(=O)(=O)Nc1ccc(F)c(C(=O)c2c[nH]c3ncc(-c4ccc(Cl)cc4)cc23)c1F + CN1CCN(c2cc(C(=O)Nc3cc4cc(-c5cnn(C)c5)ccc4cn3)ccn2)CC1
Solution: 99.8

Exercise: Would you kindly repeat that for O=C(c1cc(Cc2n[nH]c(=O)c3ccccc23)ccc1F)N1CCN(C(=O)C2CC2)CC1 + CN1CCN(c2cc(C(=O)Nc3cc4cc(-c5cnn(C)c5)ccc4cn3)ccn2)CC1 ?
Solution: 108

Exercise: What do you have for O=C(c1cc(Cc2n[nH]c(=O)c3ccccc23)ccc1F)N1CCN(C(=O)C2CC2)CC1 + CNC(=O)c1ccc(Nc2nc(OC3CCCC3)c3c(-c4ccc5nc(C)oc5c4)c[nH]c3n2)c(OC)c1 ?
Solution: 102

Exercise: Next up: C=CC(=O)N1CCN(c2nc(=O)n(-c3c(C)ccnc3C(C)C)c3nc(-c4c(O)cccc4F)c(F)cc23)C(C)C1 (centres undefined) + CN1CCN(c2cc(C(=O)Nc3cc4cc(-c5cnn(C)c5)ccc4cn3)ccn2)CC1
Solution: 102
